- protocol: LYSA solubility study
- Format: physicochemical
- condition parameters: phosphate buffer, pH 6.5, aqueous buffer, thermodynamic from solid, 0.05M phosphate buffer pH 6.5, read-out: LYSA of Prodrugs
Overview of reported solubility thermodynamic across a group of molecules:
The reply should be a number in µg/mL, with the unit left off.

Solved entries:
CCCS(=N)(=O)c1nc(N)c2c(n1)n(Cc1ccccc1)c(=O)n2C(=O)N(C)CC(C)C (centres unmarked); 155
CCCS(=N)(=O)c1nc(N)c2c(n1)n(Cc1ccccc1)c(=O)n2C(=O)N(C)C(C)C (centres unmarked); 120
CCCN(CC)C(=O)n1c(=O)n(Cc2ccccc2)c2nc(S(=N)(=O)CCC)nc(N)c21 (centres unmarked); 240
CCCN(C)C(=O)n1c(=O)n(Cc2ccccc2)c2nc(S(=N)(=O)CCC)nc(N)c21 (centres unmarked) [Example 1]; 290
CCCN(C)C(=O)n1c(=O)n(Cc2ccc(F)cc2)c2nc(S(=N)(=O)CC)nc(N)c21 (centres unmarked) [Example 45]; 172
CCCN(C)C(=O)n1c(=O)n(Cc2ccccc2)c2nc(S(=N)(=O)CCC)nc(N)c21 (single isomer, unassigned) [Example 1-A]; 315

// solubility thermodynamic value for CCCN(CCOC)C(=O)n1c(=O)n(Cc2ccccc2)c2nc(S(=N)(=O)CCC)nc(N)c21 (centres unmarked) : 615

// sample CCCS(=N)(=O)c1nc(N)c2c(n1)n(Cc1ccccc1)c(=O)n2C(=O)N(C)CCC(=O)OC(C)(C)C (centres unmarked) , its solubility thermodynamic was 205

###

Recorded concentration at 0.5 h values for a group of compounds are listed next.
- protocol: Single dose PK study in male Wister-Han rats
- Format: in vivo
- condition parameters: male, Wister-Han, rat, plasma, po, 5 mg/kg, 5 mg/kg oral dosing of active form, 0.5 h
The response must be a number in nM with no trailing unit.

Some solved cases for reference:
CCS(=O)(=O)c1nc(N)c2[nH]c(=O)n(Cc3ccc(C)cc3)c2n1 [Example S-3, reference compound]; 9.99
CC[S@@](=N)(=O)c1nc(N)c2[nH]c(=O)n(Cc3ccc(C)cc3)c2n1 (single isomer, unassigned) [Compound 43e-A]; 15.2

Now look at this one.
concentration at 0.5 h for CCS(=N)(=O)c1nc(N)c2[nH]c(=O)n(Cc3ccc(F)cc3)c2n1 (single isomer, unassigned) [Compound 45e-A] is 80

###

Recorded concentration at 0.5 h by entry
- protocol: Single dose PK study in male Wister-Han rats
- Format: in vivo
- condition parameters: male, Wister-Han, rat, plasma, po, 5 mg/kg, 5 mg/kg oral dosing of active form, 0.5 h
Note: unit nM is implicit; provide only the numeric part.

Per the records, this compound ( CCCCOc1nc(N)c2c(n1)N(Cc1cccc(CN3CCCC3)c1)CC(=O)N2 [GS9620, reference compound] ) has concentration at 0.5 h equal to 33.2

Sure, the documented concentration at 0.5 h for CC[S@](=N)(=O)c1nc(N)c2[nH]c(=O)n(Cc3ccc(Cl)cc3)c2n1 (single isomer, unassigned) [Compound 41c-A] is 27.5

Kindly note the recorded concentration at 0.5 h for CCS(=O)(=O)c1nc(N)c2[nH]c(=O)n(Cc3ccc(Cl)cc3)c2n1 [Example S-2, reference compound] , which is 16.7

Item: CC[S@@](=N)(=O)c1nc(N)c2[nH]c(=O)n(Cc3ccc(Cl)cc3)c2n1 (single isomer, unassigned) [Compound 41c-B] | concentration at 0.5 h: 0.75

###

- protocol: Portal vein study: oral PK in PVC/CAC dual cannulated rat
- Format: in vivo
- condition parameters: portal vein plasma, prodrug 10 mg/kg oral, analyte prodrug, read-out: Tmax (h), prodrug, Portal sampling
value kind: Tmax (h)
# unit: h | format: bare number

CCCN(C)C(=O)n1c(=O)n(Cc2ccc(Cl)cc2)c2nc([S@@](=N)(=O)CC)nc(N)c21; 0.19
CCN(C)C(=O)n1c(=O)n(Cc2ccc(Cl)cc2)c2nc([S@@](=N)(=O)CC)nc(N)c21; 0.19
CCCN(C)C(=O)n1c(=O)n(Cc2ccc(Cl)cc2)c2nc([S@](=N)(=O)CC)nc(N)c21; 0.14
CCCN(C)C(=O)n1c(=O)n(Cc2ccc(C)cc2)c2nc([S@](=N)(=O)CC)nc(N)c21; 0.28

Entry under test: CCCN(C)C(=O)n1c(=O)n(Cc2ccccc2)c2nc(S(=N)(=O)CCC)nc(N)c21 (single isomer, unassigned) . Its Tmax was 0.083

###

- protocol: Portal vein study: oral PK in PVC/CAC dual cannulated rat
- Format: in vivo
- condition parameters: portal vein plasma, prodrug 10 mg/kg oral, analyte prodrug, read-out: Cmax (nM), prodrug, Portal sampling
value kind: Cmax
Please format your answer as a value with the unit trailing.

CCN(C)C(=O)n1c(=O)n(Cc2ccc(Cl)cc2)c2nc([S@@](=N)(=O)CC)nc(N)c21; 8920 nM

Per the record, "CCCN(C)C(=O)n1c(=O)n(Cc2ccc(C)cc2)c2nc([S@](=N)(=O)CC)nc(N)c21" has Cmax of 4110 nM

Per the records, this compound ( CCCN(C)C(=O)n1c(=O)n(Cc2ccccc2)c2nc(S(=N)(=O)CCC)nc(N)c21 (single isomer, unassigned) ) has Cmax equal to 670 nM

Cmax recorded for this compound, "CCCN(C)C(=O)n1c(=O)n(Cc2ccc(Cl)cc2)c2nc([S@](=N)(=O)CC)nc(N)c21" , is 9700 nM

// recorded Cmax for "CCCN(C)C(=O)n1c(=O)n(Cc2ccc(Cl)cc2)c2nc([S@@](=N)(=O)CC)nc(N)c21" : 7070 nM

###

- protocol: Single dose PK study in male Wister-Han rats
- Assay type: in vivo
- condition parameters: male, Wister-Han, rat, plasma, po, 5 mg/kg, 5 mg/kg oral dosing of active form, 2 h
value kind: concentration at 2 h (nM)
State just the number; it will be interpreted in nM.

// below: answered molecules
CC[S@@](=N)(=O)c1nc(N)c2[nH]c(=O)n(Cc3ccc(C)cc3)c2n1 (single isomer, unassigned) [Compound 43e-A]; 12
CCS(=O)(=O)c1nc(N)c2[nH]c(=O)n(Cc3ccc(C)cc3)c2n1 [Example S-3, reference compound]; 8.4

Per the records, this molecule ( CC[S@](=N)(=O)c1nc(N)c2[nH]c(=O)n(Cc3ccc(Cl)cc3)c2n1 (single isomer, unassigned) [Compound 41c-A] ) has concentration at 2 h equal to 27.3

Sample CC[S@@](=N)(=O)c1nc(N)c2[nH]c(=O)n(Cc3ccc(Cl)cc3)c2n1 (single isomer, unassigned) [Compound 41c-B] ; concentration at 2 h observed: 5.46

// concentration at 2 h lookup, molecule = CCS(=N)(=O)c1nc(N)c2[nH]c(=O)n(Cc3ccc(F)cc3)c2n1 (single isomer, unassigned) [Compound 45e-A] , result: 42.5

The molecule listed as CCS(=O)(=O)c1nc(N)c2[nH]c(=O)n(Cc3ccc(Cl)cc3)c2n1 [Example S-2, reference compound] has a reported concentration at 2 h of 24.9

molecule CCCCOc1nc(N)c2c(n1)N(Cc1cccc(CN3CCCC3)c1)CC(=O)N2 [GS9620, reference compound] , concentration at 2 h observed: 136

###

The molecules listed here are annotated with their EC50.
- target entity: human TLR7 (Homo sapiens, UniProt Q9NYK1)
- Sequence (Q9NYK1 27-1049): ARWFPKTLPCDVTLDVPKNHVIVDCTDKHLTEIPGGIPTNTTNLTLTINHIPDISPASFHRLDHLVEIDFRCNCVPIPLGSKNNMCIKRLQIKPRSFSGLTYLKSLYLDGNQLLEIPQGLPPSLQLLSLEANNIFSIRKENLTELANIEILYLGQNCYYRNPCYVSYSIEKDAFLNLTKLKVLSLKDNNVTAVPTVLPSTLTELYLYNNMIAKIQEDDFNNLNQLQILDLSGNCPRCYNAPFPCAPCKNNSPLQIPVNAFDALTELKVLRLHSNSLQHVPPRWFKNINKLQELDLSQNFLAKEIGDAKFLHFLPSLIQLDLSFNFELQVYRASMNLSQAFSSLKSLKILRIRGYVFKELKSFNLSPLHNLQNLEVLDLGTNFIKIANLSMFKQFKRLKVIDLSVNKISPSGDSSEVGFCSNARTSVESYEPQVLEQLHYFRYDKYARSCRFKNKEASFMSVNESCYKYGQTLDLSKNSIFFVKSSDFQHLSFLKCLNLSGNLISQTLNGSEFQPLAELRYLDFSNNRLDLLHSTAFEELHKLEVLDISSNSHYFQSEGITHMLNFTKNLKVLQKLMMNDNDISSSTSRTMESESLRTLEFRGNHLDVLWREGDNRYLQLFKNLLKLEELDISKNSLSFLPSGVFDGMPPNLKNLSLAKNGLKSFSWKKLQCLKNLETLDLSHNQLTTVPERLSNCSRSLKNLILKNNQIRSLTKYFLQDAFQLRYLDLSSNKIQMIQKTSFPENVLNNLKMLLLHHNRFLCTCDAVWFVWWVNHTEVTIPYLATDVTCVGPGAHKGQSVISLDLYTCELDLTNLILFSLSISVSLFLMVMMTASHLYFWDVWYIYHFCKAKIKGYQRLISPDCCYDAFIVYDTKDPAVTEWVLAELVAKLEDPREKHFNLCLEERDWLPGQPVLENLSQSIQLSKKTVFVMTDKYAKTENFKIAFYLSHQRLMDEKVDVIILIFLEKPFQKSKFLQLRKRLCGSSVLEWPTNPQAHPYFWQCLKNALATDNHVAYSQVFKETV
- protocol: HEK293-Blue-hTLR-7 cells assay (SEAP reporter)
- Type: cell-based
- condition parameters: HEK293-Blue-hTLR-7 cells, SEAP reporter, 20 hrs; prodrug; read-out: HEK293-hTLR-7 EC50 (Prodrug)
- Source text: HEK293-Blue-hTLR-7 Cells Assay: A stable HEK293-Blue-hTLR-7 cell line was purchased from InvivoGen (Cat.#: hkb-htlr7, San Diego, Calif., USA). These cells were designed for studying the stimulation of human TLR7 by monitoring the activation of NF-κB. A SEAP (secreted embryonic alkaline phosphatase) reporter gene was placed under the control of the IFN-β minimal promoter fused to five NF-κB and AP-1-binding sites. […]
Just the number please, in µM, no unit attached.

The examples below pair each entry with its known result.
CCN(C)C(=O)n1c(=O)n(Cc2ccc(Cl)cc2)c2nc([S@@](=N)(=O)CC)nc(N)c21 [Example 42-A]; 40.5
CCCS(=N)(=O)c1nc(N)c2c(n1)n(Cc1ccccc1)c(=O)n2C(=O)N(C)CCOC (single isomer, unassigned) [Example 2-B]; 4.4
CCCS(=N)(=O)c1nc(N)c2c(n1)n(Cc1ccccc1)c(=O)n2C(=O)N1CCN(C)CC1 (centres unmarked); 5.6
CCCS(=N)(=O)c1nc(N)c2c(n1)n(Cc1ccccc1)c(=O)n2C(=O)N(C)CCC(=O)OC(C)(C)C (centres unmarked); 32.1
CCC[S@](=N)(=O)c1nc(N)c2c(n1)n(Cc1ccc(C)cc1)c(=O)n2C(=O)N(C)CCOC (stereo in doubt) [Example 38-B]; 19.5
CCC[S@](=N)(=O)c1nc(N)c2c(n1)n(Cc1ccc(C)cc1)c(=O)n2C(=O)N(C)CCOC [Example 38-A]; 26.2
CCCS(=N)(=O)c1nc(N)c2c(n1)n(Cc1ccccc1)c(=O)n2C(=O)N(CC)CCOC (centres unmarked); 41

For the next question, use this molecule.
Hey, human TLR7 (Homo sapiens, UniProt Q9NYK1) data for CCCN(C)C(=O)n1c(=O)n(Cc2ccc(C)cc2)c2nc([S@@](=N)(=O)CC)nc(N)c21 (single isomer, unassigned) : EC50 came out at 78.4
